Test system: Wolbachia pipientis
METHOD: Anti-Wolbachia Cell-Based Screen
Format: functional
Design: scale not given: in the data most compounds retested in dose-response had high values
SETTINGS: 5 µM
In all, about 48,000 compounds went through this assay and about 13,000 (27%) showed an effect of 50% or more. This is one part of the list.
Reported Percent Effect values follow for various compounds
Could you give me the number in %? Just the number is fine.

Would you please look over these solved cases?
INSERT INTO assay_data (compound, measured_property, unit_label, measured_number) VALUES
  ('COCCNC(=O)c1ccoc1CN1c2ccccc2CC1C (stereo not drawn)', 'Percent Effect', '%', -13.79),
  ('Cc1ccc(C)c(CS(=O)(=O)CC(=O)N(C)Cc2cccc(F)c2)c1', 'Percent Effect', '%', -31.79),
  ('O=C(Cc1ccccc1)N1CCC(c2nnc(-c3ccccn3)o2)CC1', 'Percent Effect', '%', 100.4),
  ('CN(C)S(=O)(=O)N1CCC(c2nnc(C(F)(F)F)o2)CC1', 'Percent Effect', '%', 9.522);

Inquiry: Can you share its Percent Effect? I mean this compound: CCS(=O)(=O)N1CCC(c2nnc(C(F)(F)F)o2)CC1
Reply text: -1.552

###

Reported Percent Effect values follow for various compounds
Tested on: Wolbachia pipientis
METHOD: Anti-Wolbachia Cell-Based Screen
Assay type: functional
Design: scale not given: in the data most compounds retested in dose-response had high values
SETTINGS: 5 µM
Out of some 48,000 compounds screened, about 13,000 (27%) showed an effect of 50% or more. The list shows a part of the results.
Could you give me the number in %? Just the number is fine.

INSERT INTO measurements (compound, measured_property, measured_number) VALUES
  ('O=C(NCCN1CCNC1=O)c1cc(-c2ccc(O)cc2)n[nH]1', 'Percent Effect', 6.287),
  ('O=C(NCCN1CCOC1=O)c1cnc(-c2cccnc2)nc1', 'Percent Effect', 103);

Inquiry: Can you share its Percent Effect? I mean this compound: CCc1cnc(C)nc1NCC(O)CN1CCCCCC1 (stereo not given)
Reply text: -1.473

Inquiry: How about this compound: O=C(NCCN1CCNC1=O)c1cnc(-c2cccnc2)nc1
Reply text: 91.56

Inquiry: How about this compound: OC1CCN(Cc2cc3c(cc2Br)OCCO3)CC1
Reply text: 23.9

Inquiry: How about this compound: Cc1nn(C)c(C)c1S(=O)(=O)NCC1(C(N)=O)CCOCC1
Reply text: 87.99

Inquiry: How about this compound: Cc1nn(C)c(C)c1CCC(=O)NCc1csc(N2CCCC2)n1
Reply text: -4.027

Inquiry: How about this compound: COCc1ccc(C(=O)N2CC[C@@](O)(COC)C(C)(C)C2)o1
Reply text: 3.183

Inquiry: How about this compound: CCNS(=O)(=O)C1CCN(C(=O)c2ccc(CC)o2)C1 (stereo not given)
Reply text: 1.453

Inquiry: How about this compound: CC(Oc1ccccc1C(F)(F)F)C(=O)NCCNC(=O)C1CC1 (stereo not given)
Reply text: -69.67

Inquiry: How about this compound: Cn1ccnc1NC[C@@H]1CCC[C@@H]2CN(CC3CC3)C[C@@H]21.O=C(O)C(F)(F)F
Reply text: 12.38

Inquiry: How about this compound: Cc1ccn(-c2ccc(NCc3ccnc(N4CCCCC4)c3)nn2)n1
Reply text: 4.336

Inquiry: How about this compound: Cn1ccc2c(C(=O)NCC3(C(N)=O)CCOCC3)cccc21
Reply text: -19.6

Inquiry: How about this compound: CSc1ccc2cc(CN(C)CCCN(C)C)c(=O)[nH]c2c1
Reply text: -7.905

Inquiry: How about this compound: CN(C(=O)c1ccc(C2CCCO2)s1)C1CCS(=O)(=O)CC1 (stereo not given)
Reply text: 4.966

###

Reported Percent Effect values follow for various compounds
System: Wolbachia pipientis
METHOD: Anti-Wolbachia Cell-Based Screen
Format: functional
Design: scale not given: in the data most compounds retested in dose-response had high values
SETTINGS: 5 µM
The campaign covered roughly 48,000 compounds. About 13,000 (27%) showed an effect of 50% or more. Some of the results follow.
Could you give me the number in %? Just the number is fine.

Would you please look over these solved cases?
INSERT INTO measurements (compound, target_under_test, measured_property, measured_number) VALUES
  ('Cn1cnc2c1CCN(CC(=O)N(Cc1ccsc1)C1CC1)C2', 'Wolbachia pipientis', 'Percent Effect', -10.64),
  ('CNc1c(NCc2ccco2)c(=O)c1=O', 'Wolbachia pipientis', 'Percent Effect', 113.6),
  ('Cc1cnc(N2CCC3(CC2)CCN(c2cncnc2)C3=O)nc1', 'Wolbachia pipientis', 'Percent Effect', -8.08),
  ('c1ccc(CCc2noc(CN3CCC(N4CCSCC4)CC3)n2)cc1', 'Wolbachia pipientis', 'Percent Effect', -3.456),
  ('Cc1nn(C)c(Cl)c1C1CCCN1C(=O)c1cc[nH]n1 (centres undefined)', 'Wolbachia pipientis', 'Percent Effect', -2.963),
  ('Cn1ccnc1CN1CC[C@@H]2[C@@H](CCC(=O)N2CCc2c[nH]cn2)C1', 'Wolbachia pipientis', 'Percent Effect', 16.03),
  ('CS(=O)(=O)NCc1cnc2n1CCN(Cc1ccsc1)CC2.O=C(O)C(F)(F)F', 'Wolbachia pipientis', 'Percent Effect', -2.337),
  ('O=S(=O)(Cc1ccccc1)NCc1ccco1', 'Wolbachia pipientis', 'Percent Effect', 0.9463),
  ('CC1(C)CN(S(=O)(=O)N2CCCC2)CC1c1ccccc1 (centres undefined)', 'Wolbachia pipientis', 'Percent Effect', -16.61),
  ('O=C1CCC[C@]2(CN(S(=O)(=O)C3CCCCC3)C[C@H]2c2cccnc2)N1', 'Wolbachia pipientis', 'Percent Effect', 155.7);

Inquiry: Can you share its Percent Effect? I mean this compound: CC(CNC(=O)NCc1ccco1)CC1(C)OCCO1 (centres undefined)
Reply text: 3.835

Inquiry: How about this compound: Cc1cc2c(cc1C(=O)N1CCC3(CC(=O)NC3=O)C1)OCCO2 (centres undefined)
Reply text: -6.886

Inquiry: How about this compound: Cc1cccc(N2CCc3ncc(CNc4ccccn4)n3CC2)n1.O=C(O)C(F)(F)F.O=C(O)C(F)(F)F
Reply text: 88.27

Inquiry: How about this compound: O=S(=O)(C1CC1)N1CCC2(CC1)COC(COc1cccnc1)C2 (centres undefined)
Reply text: -3.155

Inquiry: How about this compound: CC(NC(=O)c1cc2n(n1)CCCN(C)C2)c1cn2ccsc2n1 (centres undefined)
Reply text: -3.947

Inquiry: How about this compound: Cc1ccn2cc(C(=O)N3CCCC3c3c(C)nn(C)c3C)nc2c1 (centres undefined)
Reply text: 3.405

Inquiry: How about this compound: CC(=O)NCc1ccc(C(=O)N2CCCC2c2c(C)nn(C)c2C)o1 (centres undefined)
Reply text: 97.07

Inquiry: How about this compound: CC(CN1CCC2(CC1)c1nc[nH]c1CCN2S(C)(=O)=O)C(F)(F)F (centres undefined)
Reply text: -8.098

Inquiry: How about this compound: CCS(=O)(=O)N1CCC2(CN(c3cccc(C)n3)C2)C1.O=C(O)C(F)(F)F
Reply text: 1.878

###

Reported Percent Effect values follow for various compounds
Test system: Wolbachia pipientis
METHOD: Anti-Wolbachia Cell-Based Screen
Type: functional
Design: scale not given: in the data most compounds retested in dose-response had high values
SETTINGS: 5 µM
Screen size: about 48,000 compounds; about 13,000 (27%) showed an effect of 50% or more. The list shows a part of the results.
Could you give me the number in %? Just the number is fine.

Would you please look over these solved cases?
INSERT INTO measurements (compound, measured_property, unit_label, measured_number) VALUES
  ('CN(CC(O)CO)C(=O)c1coc(COc2cccc(F)c2)n1 (centres undefined)', 'Percent Effect', '%', -18.15),
  ('CCC(C)(C)NC(=O)c1ncn2c1CN(C)S(=O)(=O)c1ccccc1-2.O=C(O)C(F)(F)F', 'Percent Effect', '%', 117.1),
  ('Cc1nn(C)cc1S(=O)(=O)N[C@@H]1CCC[C@@H](n2ccnc2)[C@@H]1O', 'Percent Effect', '%', 85.24);

Switching to the query record.
Inquiry: Fill in the recorded Percent Effect for this compound, with Wolbachia pipientis as test system: CCC(CC)NC(=O)c1ncn2c1CN(CC)S(=O)(=O)c1ccccc1-2.O=C(O)C(F)(F)F
Reply text: 4.599

###

Tested on: Wolbachia pipientis
METHOD: Anti-Wolbachia Cell-Based Screen
Type: functional
Set-up: scale not given: in the data most compounds retested in dose-response had high values
SETTINGS: 5 µM
In all, about 48,000 compounds went through this assay and about 13,000 (27%) showed an effect of 50% or more. Some of the results follow.
Reported Percent Effect values follow for various molecules
Could you give me the number in %? Just the number is fine.

Would you please look over these solved cases?
INSERT INTO measurements (molecule, measured_number) VALUES
  ('CC(C)CN1CCC(C(=O)Nc2cc(C(F)(F)F)c[nH]c2=O)CC1', -2.2),
  ('O=C(NCc1ccccn1)Nc1cc(C(F)(F)F)c[nH]c1=O', 4.379),
  ('Cl.O=C(Nc1cc(C(F)(F)F)c[nH]c1=O)C1CCCCN1 (configuration not stated)', 99.37),
  ('Cn1c(CN2CCCCC2)cc(=O)c(O)c1CN1CCCCC1', 95.65),
  ('CN(C)C(=O)N1C[C@@H]2COC[C@]2(c2nnc(C3CC3)o2)C1', 1.303);

Inquiry: Can you share its Percent Effect? I mean this molecule: CC(C)c1nn(C)c(Cl)c1CNCc1ccc2c(c1)OCCO2.Cl
Reply text: -6.63
